Where these numbers come from: paper doi:10.1101/2025.10.06.680794v3

target_desc: p53 core domain (WT p53) (Homo sapiens, UniProt P04637)
Sequence (P04637 94-312): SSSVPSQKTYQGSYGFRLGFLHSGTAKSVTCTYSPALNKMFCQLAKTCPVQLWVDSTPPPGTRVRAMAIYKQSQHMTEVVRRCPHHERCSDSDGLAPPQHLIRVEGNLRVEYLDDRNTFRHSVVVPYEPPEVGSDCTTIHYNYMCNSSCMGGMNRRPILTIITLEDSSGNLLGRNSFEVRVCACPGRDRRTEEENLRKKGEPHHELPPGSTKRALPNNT
metric: pKd
Note on pKd: it is the negative log10 of concentration, concentration in mol/L.

Request: pKd, test system p53 core domain (WT p53) (Homo sapiens, UniProt P04637), entry CC1(C)CC(NCC(=O)N2C/C(=C\c3ccc(C#N)cc3)C(=O)/C(=C/c3ccc(C#N)cc3)C2)C(C)(C)N1[O] (stereo not shown) [AKT-100]
5.01
